Taken from paper PMC7968666.

- test: Pharmacokinetic and drug-drug interaction studies in blood-fed mosquitoes (concentration-time courses, population PK modelling)
- details: female, Aedes aegypti, in vivo, CYP modulator concentration (ng/mg mosquito), Treatment KCZ + IVM (5 µg/ml KCZ, 0.1 µg/ml IVM), Batch 1, 0 h post feeding, single mosquitoes 1-20
measured attribute: concentration at 0 h

Prompt line: So what's the measured concentration at 0 h for this one? CC(=O)N1CCN(c2ccc(OCC3COC(Cn4ccnc4)(c4ccc(Cl)cc4Cl)O3)cc2)CC1 (stereo not shown) [ketoconazole]
Response line: 639 ng/g

----------
- System: Aedes aegypti mosquitoes
- test: Drug effect on mosquito fertility (percentage of eggs hatched)
- Assay type: in vivo
- details: 100 eggs laid 48-96 h post-treatment; IVM 0.1, KCZ 5, RIF 10, RTV 10, PBO 10 μg/ml in blood
- Description: The mixtures were rotated at room temperature for 30 min to ensure a uniform drug distribution (Rotator Genie, Scientific Industries, Bohemia, USA). […] Twelve hours later, the tap water was also removed to starve the mosquitoes. […] Any hatched larva was counted and transferred to a rearing tray with a plastic pipette. The fertility was calculated as the percentage of eggs hatched. […] Normality was assessed using the Shapiro-Wilk test. […]
Decide using Mosquito fertility, Batch 2, hatching rate alone. Strictly below 70%: MET. Equal to or above 70%: NOT MET.

Examples with answers:
[
  {
    "compound": "CC(=O)N1CCN(c2ccc(OCC3COC(Cn4ccnc4)(c4ccc(Cl)cc4Cl)O3)cc2)CC1 (centres unmarked)",
    "category label": "NOT MET"
  },
  {
    "compound": "CO[C@H]1/C=C/O[C@@]2(C)Oc3c(C)c(O)c4c(O)c(c(/C=N/N5CCN(C)CC5)c(O)c4c3C2=O)NC(=O)/C(C)=C\\C=C\\[C@H](C)[C@H](O)[C@@H](C)[C@@H](O)[C@@H](C)[C@H](OC(C)=O)[C@@H]1C",
    "category label": "NOT MET"
  },
  {
    "compound": "CCC(C)C1OC2(CCC1C)CC1CC(CC=C(C)C(OC3CC(OC)C(OC4CC(OC)C(O)C(C)O4)C(C)O3)C(C)C=CC=C3COC4C(O)C(C)=CC(C(=O)O1)C34O)O2 (centres unmarked)",
    "category label": "MET"
  }
]

Next, consider the following compound.
Prompt line: Is Mosquito fertility, Batch 2, hatching rate strictly under 70% for the entry `CC(C)c1nc(CN(C)C(=O)N[C@H](C(=O)N[C@@H](Cc2ccccc2)C[C@H](O)[C@H](Cc2ccccc2)NC(=O)OCc2cncs2)C(C)C)cs1` ?
Response line: NOT MET
